outcome.measure: melting point

| smiles.record | melting point |
| --- | --- |
| CCCCOc1ccc(Oc2nnc([C@@H](C)NS(=O)(=O)c3ccc(Cl)c(Cl)c3)n2CC)cc1 | 146.5 to 149.5 °C |
| CCn1c(Oc2cccc(NC=O)c2)nnc1[C@@H](C)NS(=O)(=O)c1ccc(Cl)c(Cl)c1 | 168 to 170 °C |
| CCn1c(Oc2cccc(OC)c2)nnc1[C@@H](C)NS(=O)(=O)c1ccc(Cl)c(Cl)c1 | 119 to 120.5 °C |

Name the reported melting point value associated with the compound "CCn1c(Oc2cccc(O)c2)nnc1[C@@H](C)NS(=O)(=O)c1ccc(Cl)c(Cl)c1"
185 to 186 °C

Param item: "CCn1c(Sc2ccccc2)nnc1[C@@H](Cc1ccccc1)NS(=O)(=O)c1ccc(Cl)c(Cl)c1"
134 to 138 °C

Same lookup for "CCn1c(Oc2cccc(N3CCN(C)CC3)c2)nnc1[C@@H](C)NS(=O)(=O)c1ccc2c(C#N)cccc2c1" , please.
227 to 229 °C

Further, for "CCn1c(Oc2ccc3cccnc3c2)nnc1[C@@H](C)NS(=O)(=O)c1ccc(Cl)c(Cl)c1" ?
198 to 200.5 °C

Where do the numbers come from? From patent US8022091B2.
